Readings of inhibition at 10 µM for the listed compounds
- target_of_assay: TLR9 (Homo sapiens)
- Construct: expressed in transfected cells; host or cells: HEK293
- method_notes: TLR9 screening of (+)-morphinan library, SEAP reporter in HEK293 cells expressing TLR9
- Type: cell-based
- protocol_conditions: HEK293; 10 μM; activator ODN2006; read-out: % Inhibition (mean)
- Procedure: The secreted alkaline phosphatase reporter is under the control of a promoter inducible by the transcription factor NF-κB. […] In a 96-well plate (200 μL total volume) containing 50,000 cells/well, 20 μL of each sample compound was added to wells, in triplicate, followed by a 30 minute incubation at 37° C. and 5% CO2. […] After a 16-20 hr incubation period, the OD at 650 nm was read on a Beckman Coulter AD 340C Absorbance Detector. […]

A selection of reference data follows.
INSERT INTO assay_data (smiles_data, endpoint_value) VALUES
  ('C=CCN1CCc2cc(OC)ccc2[C@H]1Cc1ccc(OC)c(O)c1', '71%'),
  ('COc1ccc2c(c1)CCN(CC1CCC1)[C@@H]2Cc1ccc(OC)c(O)c1', '92%'),
  ('COc1ccc2c(c1)CCN(C)[C@@H]2Cc1ccc(OC)c(O)c1', '80%'),
  ('COc1ccc2c(c1)CCN(CC1CC1)[C@@H]2Cc1ccc(OC)c(O)c1', '91%');

The record that follows has no inhibition at 10 µM shown yet.
COc1ccc2c(c1)CCN[C@@H]2Cc1ccc(OC)c(O)c1 has a reported inhibition at 10 µM of 53%

---

- target_of_assay: TLR9 (Homo sapiens, UniProt Q9NR96)
- Construct: expressed in transfected cells; host or cells: HEK293
- Sequence (Q9NR96 26-1032): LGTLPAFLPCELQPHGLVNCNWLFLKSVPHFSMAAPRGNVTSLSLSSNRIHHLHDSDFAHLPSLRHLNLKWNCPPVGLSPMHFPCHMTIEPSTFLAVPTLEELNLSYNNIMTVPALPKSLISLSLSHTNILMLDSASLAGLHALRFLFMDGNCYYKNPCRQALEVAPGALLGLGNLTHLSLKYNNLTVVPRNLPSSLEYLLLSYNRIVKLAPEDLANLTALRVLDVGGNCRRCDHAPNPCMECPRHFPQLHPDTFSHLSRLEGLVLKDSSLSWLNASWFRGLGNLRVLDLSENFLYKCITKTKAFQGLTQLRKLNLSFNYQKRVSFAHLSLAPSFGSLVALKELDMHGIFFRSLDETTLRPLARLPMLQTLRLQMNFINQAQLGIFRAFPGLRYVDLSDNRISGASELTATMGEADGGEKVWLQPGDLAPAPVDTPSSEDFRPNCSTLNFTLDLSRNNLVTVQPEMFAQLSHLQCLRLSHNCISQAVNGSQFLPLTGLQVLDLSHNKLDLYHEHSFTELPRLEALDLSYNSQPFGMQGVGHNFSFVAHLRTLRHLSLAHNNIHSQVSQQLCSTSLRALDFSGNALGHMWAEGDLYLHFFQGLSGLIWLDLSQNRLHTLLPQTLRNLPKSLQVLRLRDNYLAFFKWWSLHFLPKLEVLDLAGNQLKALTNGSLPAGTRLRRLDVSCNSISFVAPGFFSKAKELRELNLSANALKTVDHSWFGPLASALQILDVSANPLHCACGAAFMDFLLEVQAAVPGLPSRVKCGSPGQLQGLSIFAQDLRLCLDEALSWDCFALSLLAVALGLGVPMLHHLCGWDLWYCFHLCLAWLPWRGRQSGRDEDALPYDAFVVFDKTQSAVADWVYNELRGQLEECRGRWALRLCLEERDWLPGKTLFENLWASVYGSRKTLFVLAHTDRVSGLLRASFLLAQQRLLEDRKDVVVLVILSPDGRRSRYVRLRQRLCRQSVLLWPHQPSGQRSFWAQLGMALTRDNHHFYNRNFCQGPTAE
- method_notes: TLR9 screening of (+)-morphinan library, SEAP reporter in HEK293 cells expressing TLR9
- Type: cell-based
- protocol_conditions: HEK293, read-out: % Inhibition (mean), 100 nM; activator ODN2006
recorded_metric: inhibition at 0.1 µM (%)
Quick reminder: number only, in %, skip the unit.

A selection of reference data follows.
INSERT INTO results (molecule, endpoint_value) VALUES
  ('COc1ccc2c3c1O[C@@H]1C(NC(C)=O)CC[C@]4(O)[C@H](C2)N(C)CC[C@@]314 (some centres unmarked)', 29),
  ('COc1cc(Br)c2c3c1O[C@@H]1C(=O)CCC4C(C2)N(CC2CC2)CC[C@]341 (some centres unmarked)', 18),
  ('COc1cc(Br)c2c(c1O)[C@@]13CCN(CC4CCC4)C(C2)C1CCC(=O)C3 (some centres unmarked)', 20),
  ('COC1=CC=C2[C@@H]3Cc4ccc(OC)c5c4[C@]2(CCN3)[C@@H]1O5', 40),
  ('COc1ccc2c(c1O)[C@]13C=CCC[C@]1(O)[C@H](C2)N(C)CC3', 34),
  ('C=CCN1CC[C@@]23CC(=O)CCC2C1Cc1c(-c2ccoc2)cc(OC)c(O)c13 (some centres unmarked)', 21);

C=C1CC[C@]2(O)[C@@H]3Cc4ccc(OC)c5c4[C@]2(CCN3C)[C@@H]1O5 has a reported inhibition at 0.1 µM of 11

COC1=CC=C2[C@@H]3Cc4ccc(OC)c5c4[C@]2(CCN3CC2CC2)[C@@H]1O5 has a reported inhibition at 0.1 µM of 20
